# measurement_notes: Selectivity index, ratio of IC50 for macrophages differentiated from human THP1 cells to IC50 for bloodstream form of Trypanosoma brucei brucei 427
# Type: toxicity, cell-based, THP-1
# condition_description: read-out: Ratio IC50
Flag rule - selectivity ratio less than 2 flags 1.0; the remaining entries get 0.0.

CCOC(=O)CC[C@H](NC(=O)c1ccc(NC(=O)Nc2c(N)nc(N)[nH]c2=O)cc1)C(=O)OCC = 0.0
CCOC(=O)c1ccc(NC(=O)Nc2c(N)nc(N)[nH]c2=O)cc1 = 1.0
Nc1nc2c(c(=O)[nH]1)N1C(=O)N(c3ccc(C(=O)NC(CCC(=O)O)C(=O)O)cc3)CC1CN2 (stereo not given) = 1.0

Exam item: Strictly below 2: is that where selectivity ratio of Nc1nc(N)c(NC(=O)Nc2ccc(C(=O)N[C@@H](CCC(=O)O)C(=O)O)cc2)c(=O)[nH]1 sits?
Marked response: 0.0

Exam item: Strictly below 2: is that where selectivity ratio of Nc1nc(N)c(NC(=O)Nc2ccc(C(=O)O)cc2)c(=O)[nH]1 sits?
Marked response: 1.0

---

# measurement_notes: Inhibition of Trypanosoma brucei FolD dehydrogenase activity assessed as formation of 5,10-CH=THF from 5,10-CH2-THF after 5 mins by spectrophotometric analysis
Could you please report measured pKi for the items listed next?
One number for each entry, as −log10 of the molar value.

Below: 3 compounds and their reported pKi.
Nc1nc(N)c(NC(=O)Nc2ccc(C(=O)N[C@@H](CCC(=O)O)C(=O)O)cc2)c(=O)[nH]1 = 5.96
Nc1nc(N)c(NC(=O)Nc2ccc(C(=O)N[C@@H](Cc3ccccc3)C(=O)O)cc2)c(=O)[nH]1 = 6.27
Nc1nc(N)c(NC(=O)Nc2ccc(C(=O)N[C@@H](Cc3ccc(O)cc3)C(=O)O)cc2)c(=O)[nH]1 = 5.14

Hey, can you go through the list below and give me pKi for every item?
1. Nc1nc(N)c(NC(=O)Nc2ccc(C(=O)N[C@@H](CCCC(=O)O)C(=O)O)cc2)c(=O)[nH]1
2. C[C@H](NC(=O)c1ccc(NC(=O)Nc2c(N)nc(N)[nH]c2=O)cc1)C(=O)O
3. Nc1nc(N)c(NC(=O)Nc2ccc(C(=O)NCCCC(=O)O)cc2)c(=O)[nH]1
4. Nc1nc2c(c(=O)[nH]1)N1C(=O)N(c3ccc(C(=O)NC(CCC(=O)O)C(=O)O)cc3)CC1CN2 (configuration not stated)

Marked response:
[6.32, 5.49, 3.77, 5.07]

---

# measurement_notes: Inhibition of Trypanosoma brucei FolD dehydrogenase activity assessed as formation of 5,10-CH=THF from 5,10-CH2-THF after 5 mins by spectrophotometric analysis
Could you please report measured IC50 for the items listed next?
Answers are plain numbers, in µM.

Below: 3 compounds and their reported IC50.
Nc1nc(N)c(NC(=O)Nc2ccc(C(=O)N[C@@H](Cc3ccc(O)cc3)C(=O)O)cc2)c(=O)[nH]1 = 9.3
Nc1nc(N)c(NC(=O)Nc2ccc(C(=O)O)cc2)c(=O)[nH]1 = 83
Nc1nc(N)c(NC(=O)Nc2ccc(C(=O)NCCCC(=O)O)cc2)c(=O)[nH]1 = 213

Hey, can you go through the list below and give me IC50 for every item?
1. CCOC(=O)CC[C@H](NC(=O)c1ccc(NC(=O)Nc2c(N)nc(N)[nH]c2=O)cc1)C(=O)OCC
2. Nc1nc(N)c(NC(=O)Nc2ccc(C(=O)N[C@@H](CCCC(=O)O)C(=O)O)cc2)c(=O)[nH]1

Marked response:
[250, 1]

Cited source: ChEMBL document CHEMBL3621150
